Data origin: patent US4341766A

molecular target: E. coli RTEM β-lactamase (Escherichia coli); construct: mature periplasmic enzyme; experiment: in vitro treatment of E. coli RTEM β-lactamase (deactivation); type: biochemical; settings: number of molecules of compound needed to inactivate one β-lactamase molecule
Sequence (P62593 24-286 limits assumed): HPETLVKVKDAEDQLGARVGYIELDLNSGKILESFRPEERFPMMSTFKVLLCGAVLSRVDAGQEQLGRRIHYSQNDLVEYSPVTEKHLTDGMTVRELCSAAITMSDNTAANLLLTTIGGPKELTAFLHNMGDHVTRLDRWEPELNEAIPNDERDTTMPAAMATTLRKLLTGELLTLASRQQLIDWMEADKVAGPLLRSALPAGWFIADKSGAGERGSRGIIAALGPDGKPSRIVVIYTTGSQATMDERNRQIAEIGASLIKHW
Exercise: for every item that follows, state its recorded turnovers before deactivation.

Sample records with turnovers before deactivation:
CC1(C)[C@H](C(=O)O)N2C(=O)C[C@H]2S1(=O)=O [CP-45, 899, 6-des-aminopenicillanic acid sulfone, reference compound]; 4,500
COc1cccc(OC)c1C(=O)N[C@@H]1C(=O)N2[C@@H](C(=O)O)C(C)(C)S(=O)(=O)[C@H]12; 22,500
Cc1onc(-c2ccccc2Cl)c1C(=O)N[C@@H]1C(=O)N2[C@@H](C(=O)O)C(C)(C)S(=O)(=O)[C@H]12; 17,000

E. coli RTEM β-lactamase (Escherichia coli) turnovers before deactivation of `CC1(C)[C@H](C(=O)O)N2C(=O)[C@@H](NC(=O)c3nc4ccccc4nc3C(=O)O)[C@H]2S1(=O)=O` is 400
